molecular target: human PPAR γ (Homo sapiens, UniProt P37231); test: Human PPARγ reporter assay (Indigo Biosciences kit); format: cell-based; conditions: antagonist mode, agonist at ~EC80; read-out: PPARγ
Measured IC50, listed per entry for reference.
Provide only the numeric value, understood in µM.

compound=CCCOc1ccc(-c2ccc(CCCc3nn(-c4ccc(C(F)(F)F)cc4)c(=O)n3C3CC3)cc2)cc1CC(=O)O test_readout=IC50 unit_descriptor=µM endpoint_value=30.7
compound=CCOc1ccc(-c2ccc(CCCc3nn(-c4ccc(OC(F)(F)F)cc4)c(=O)n3C3CCCCC3)cc2)cc1CC(=O)O test_readout=IC50 unit_descriptor=µM endpoint_value=27.1
compound=CCOc1ccc(-c2ccc(CCCc3nn(-c4ccc(C(F)(F)F)cc4)c(=O)n3-c3cccc(F)c3)cc2)cc1CC(=O)O test_readout=IC50 unit_descriptor=µM endpoint_value=55.2

Then there is this compound:
Lookup result for CCOc1ccc(-c2ccc(CCCc3nn(-c4ccc(C(F)(F)F)cc4)c(=O)n3C3CCCC(C)C3)cc2)cc1CC(=O)O (stereo not shown) ; measured IC50: 18.1

###

Target: UniProt P37231
Sequence (P37231 1-505): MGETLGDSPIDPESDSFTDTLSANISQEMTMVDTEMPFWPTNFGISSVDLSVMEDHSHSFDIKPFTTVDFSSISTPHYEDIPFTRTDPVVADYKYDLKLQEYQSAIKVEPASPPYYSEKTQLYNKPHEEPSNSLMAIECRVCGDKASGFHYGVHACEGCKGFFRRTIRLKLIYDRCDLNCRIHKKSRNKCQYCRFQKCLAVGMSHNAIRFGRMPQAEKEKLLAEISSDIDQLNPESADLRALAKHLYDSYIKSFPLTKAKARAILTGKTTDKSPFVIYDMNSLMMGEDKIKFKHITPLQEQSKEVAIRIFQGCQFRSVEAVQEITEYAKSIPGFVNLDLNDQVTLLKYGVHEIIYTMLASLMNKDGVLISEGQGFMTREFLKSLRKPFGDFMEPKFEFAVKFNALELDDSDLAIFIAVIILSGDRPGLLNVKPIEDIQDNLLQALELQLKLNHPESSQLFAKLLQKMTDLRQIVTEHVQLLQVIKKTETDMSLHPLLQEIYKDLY
Assay: Human PPARγ reporter assay (Indigo Biosciences kit)
Format: cell-based
test readout: IC50 (µM)
Provide only the numeric value, understood in µM.

// assay UniProt P37231, entry CCOc1ccc(-c2ccc(CCCc3nn(-c4ccc(C(F)(F)F)cc4)c(=O)n3-c3ccccc3OC)cc2)cc1CC(=O)O , IC50 value = 14.9

###

Measured IC50, listed per entry for reference.
biological target: human PPAR β/δ (Homo sapiens, UniProt Q03181); test: Human PPAR β/δ reporter assay (luciferase, Indigo Biosciences kit); settings: antagonist mode, agonist at ~EC80; read-out: PPARδ Luciferase IC50
Sequence (Q03181 whole entry): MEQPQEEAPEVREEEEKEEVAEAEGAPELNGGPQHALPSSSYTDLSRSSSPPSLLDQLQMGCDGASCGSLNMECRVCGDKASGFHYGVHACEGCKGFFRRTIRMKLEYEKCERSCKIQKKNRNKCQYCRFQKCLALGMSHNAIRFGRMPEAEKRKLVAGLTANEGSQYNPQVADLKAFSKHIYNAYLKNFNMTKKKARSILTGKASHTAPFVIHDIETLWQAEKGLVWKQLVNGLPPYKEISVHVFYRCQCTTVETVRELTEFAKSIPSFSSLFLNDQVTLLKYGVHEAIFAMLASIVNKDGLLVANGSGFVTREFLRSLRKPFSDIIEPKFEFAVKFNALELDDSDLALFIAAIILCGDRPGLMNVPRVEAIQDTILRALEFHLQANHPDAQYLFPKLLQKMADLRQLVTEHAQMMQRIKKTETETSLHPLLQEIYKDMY

// assay human PPAR β/δ (Homo sapiens, UniProt Q03181), entry CCOc1ccc(-c2cccc(CCCc3nn(-c4ccc(C(F)(F)F)cc4)c(=O)n3C(C)C)c2)cc1CC(=O)O [Example 31] , IC50 value = 742 nM

// assay human PPAR β/δ (Homo sapiens, UniProt Q03181), entry CCOc1ccc(-c2ccc(CCCc3nn(-c4ccc(C(F)(F)F)cc4)c(=O)n3CC(C)C)cc2)cc1CC(=O)O [Example 20] , IC50 value = 363 nM

// assay human PPAR β/δ (Homo sapiens, UniProt Q03181), entry CCOc1ccc(-c2ccc(CCCc3nn(-c4ccc(OC(F)(F)F)cc4)c(=O)n3C3CCCCC3)cc2)cc1CC(=O)O [Example 8] , IC50 value = 505 nM

// assay human PPAR β/δ (Homo sapiens, UniProt Q03181), entry CCOc1ccc(-c2ccc(CCCc3nn(-c4ccc(C(F)(F)F)cc4)c(=O)n3-c3ccccc3CC)cc2)cc1CC(=O)O [Example 25] , IC50 value = 100 nM

// assay human PPAR β/δ (Homo sapiens, UniProt Q03181), entry CCOc1ccc(-c2ccc(CCCc3nn(-c4ccc(C(C)(C)C)cc4)c(=O)n3-c3c(Cl)cccc3Cl)cc2)cc1CC(=O)O [Example 28] , IC50 value = 789 nM

Source of measurements: patent US9776976B2
